SYSTEM TESTED: T1, Human ACVR2A (human, UniProt P27037 20-135, limits assumed); also: test concentration or dose not given here
T1 construct: also called activin receptor, type II A
T1 sequence (P27037 20-135 limits assumed): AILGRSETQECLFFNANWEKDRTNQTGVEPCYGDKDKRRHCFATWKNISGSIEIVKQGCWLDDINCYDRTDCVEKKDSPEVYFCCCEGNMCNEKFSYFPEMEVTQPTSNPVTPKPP
PROCEDURE DETAILS: ELISA
METRIC NAME: optical density (OD)
Give the quantity in OD, number only.

{"BINDER": "366_A07 (antibody, V domains shown, VH/VL only) VH: EVQLLESGGGLVQPGGSLRLSCAASGFTFSSYGMHWVRQAPGKGLEWVASINYNGGYTGYADSVKGRFTISRDNSKNTLYLQMNSLRAEDTAVYYCARSANWHDTALDYWGQGTLVTVSS VL: DIQMTQSPSSLSASVGDRVTITCRASQSIVSYVNWYQQKPGKAPKLVIYAATSRHSGVPSRFSGSGSGTDFTLTISSLQPEDFATYYCQQSYESPLTFGGGTKVEIK", "optical density, OD": 2.42}

Query: Return reported optical density; argument: 374_A04 (antibody, V domains shown, VH/VL only) VH: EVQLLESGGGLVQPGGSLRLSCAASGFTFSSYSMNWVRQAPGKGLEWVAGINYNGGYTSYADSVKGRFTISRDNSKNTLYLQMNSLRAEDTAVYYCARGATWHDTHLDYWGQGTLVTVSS VL: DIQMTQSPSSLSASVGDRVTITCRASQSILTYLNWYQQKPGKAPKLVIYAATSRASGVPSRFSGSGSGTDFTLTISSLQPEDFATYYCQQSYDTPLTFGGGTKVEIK
Response: 3.65

The measurements presented in this section are drawn from patent US20210380703A1.
